# TEST_TARGET: Protein disulfide-isomerase A6 (Homo sapiens) (UniProt Q15084)
# Sequence (Q15084 whole entry, looked up): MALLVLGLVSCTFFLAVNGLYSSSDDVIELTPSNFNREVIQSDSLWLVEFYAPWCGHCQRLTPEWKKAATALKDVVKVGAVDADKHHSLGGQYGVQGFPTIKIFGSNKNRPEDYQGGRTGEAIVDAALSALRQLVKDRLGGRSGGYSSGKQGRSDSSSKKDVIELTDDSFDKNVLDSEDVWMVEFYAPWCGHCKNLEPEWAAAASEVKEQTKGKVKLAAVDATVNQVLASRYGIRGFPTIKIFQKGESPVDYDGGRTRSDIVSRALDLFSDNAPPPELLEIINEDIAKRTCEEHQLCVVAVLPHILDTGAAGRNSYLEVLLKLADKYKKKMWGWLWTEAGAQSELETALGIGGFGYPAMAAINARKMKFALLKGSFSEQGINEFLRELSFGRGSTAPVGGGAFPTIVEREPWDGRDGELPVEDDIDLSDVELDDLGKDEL
# PROTOCOL_NOTES: inhibitors of ERp5-driven insulin aggregation, primary screen, biochemical, turbidity, absorbance 650 nm, single point (AID 651711)
# EXPERIMENTAL_PARAMETERS: 90 min, at 9.99 µM, stronger effect = higher value
In all, about 350,000 compounds went through this assay and about 180 (0.051%) were called active. What follows is part of a selection rich in actives, with near analogues and random picks from the rest.
EXPERIMENTAL_ENDPOINT: inhibition (%)
The answer is to be given in %; state only the numeric part.

CCCC#Cc1cnc2c(c1)C(=O)N([C@H](C)CO)C[C@@H](C)[C@@H](CN(C)C(=O)C1CCOCC1)O2 = 2.67
O=C(N[C@@H]1CC[C@@H](CC(=O)N2CCc3ccccc3C2)O[C@H]1CO)C1CCC1 = -0.402

Please look at this compound and report its inhibition: C[C@H](CO)N1C[C@H](C)[C@H](CN(C)CC2CCCCC2)Oc2ccc(NC(=O)CCN3CCOCC3)cc2CC1=O
0.283

Supply measured inhibition of O=C(C[C@@H]1CC[C@@H]2[C@H](COC[C@H](O)CN2C(=O)Cc2ccccc2)O1)NC1CCC1 in your reply.
9.77

Quick one: give measured inhibition for Cc1ccccc1S(=O)(=O)N[C@@H]1CC[C@H](CCn2cc(-c3ccc(F)cc3)nn2)O[C@@H]1CO
0.302

====

# TEST_TARGET: Protein disulfide-isomerase A6 (Homo sapiens) (UniProt Q15084)
# PROTOCOL_NOTES: inhibitors of ERp5-driven insulin aggregation, primary screen, biochemical, turbidity, absorbance 650 nm, single point (AID 651711)
# EXPERIMENTAL_PARAMETERS: 90 min, at 9.99 µM, stronger effect = higher value
The whole screen tested about 350,000 compounds, of which about 180 (0.051%) were called active. Only a selection was taken, and actives are over-represented in it overall.
EXPERIMENTAL_ENDPOINT: inhibition (%)
The response must be a number in % with no trailing unit.

See these solved cases before continuing.
COc1cccc(-c2cnc3c(c2)C(=O)N([C@@H](C)CO)C[C@H](C)[C@H](CN(C)C(C)=O)O3)c1 = 1.61
COCCNC(=O)c1ccccc1NS(=O)(=O)c1ccc(C)c([N+](=O)[O-])c1 = 32.3
COc1ccc(CN(C)C[C@@H]2Oc3c(NC(=O)C4CC4)cccc3C(=O)N([C@@H](C)CO)C[C@H]2C)cc1 = 1.33
CC(C)NC(=O)N1[C@H](C#N)[C@H](c2ccc(C#CC3CCCCC3)cc2)[C@H]1CO = -0.752
CN1C(=O)c2cc(NC(=O)C3CCCC3)ccc2OC[C@@H]2O[C@@H](CC(=O)NCCc3ccncc3)CC[C@@H]21 = -3.7

Read the entry CN(C)C(=O)C[C@@H]1C=C[C@H](NC(=O)Nc2cccc(F)c2)[C@H](CO)O1 and write its reported inhibition.
0.18

Answer with the recorded inhibition for the compound listed here: CC(C)NC(=O)N[C@H]1CC[C@H](CC(=O)N2CCCCC2)O[C@@H]1CO
3.34

Complete the entry with inhibition for COc1ccc2c3c(n(C)c2c1)[C@@H](CO)N(C(=O)c1ccc(F)cc1)CC31CN(C(=O)c2ccc(F)cc2)C1
1.03

Please look at this compound and report its inhibition: COC(=O)[C@@H]1[C@@H](CO)[C@@H]2Cn3c(ccc(-c4ccc(OC)cc4)c3=O)[C@@H]2N1S(C)(=O)=O
4.09

Tell me inhibition reported for COc1ccc(Br)cc1/C=N/Nc1ccc(S(=O)(=O)Nc2ccccc2C(=O)O)cc1[N+](=O)[O-]
-6.38

====

# TEST_TARGET: Protein disulfide-isomerase A6 (Homo sapiens) (UniProt Q15084)
# PROTOCOL_NOTES: inhibitors of ERp5-driven insulin aggregation, primary screen, biochemical, turbidity, absorbance 650 nm, single point (AID 651711)
# EXPERIMENTAL_PARAMETERS: 90 min, at 9.99 µM, stronger effect = higher value
About 180 (0.051%) of roughly 350,000 compounds were called active. The sample holds actives, similar compounds and a random draw of the others, so the mix is not that of the screen.
Each record here notes measured inhibition.
Note: unit % is implicit; provide only the numeric part.

Give inhibition only, for CC(C)NC(=O)N1CC2(C1)[C@H](c1ccccc1)[C@H](CO)N2C(=O)C1CCOCC1 , using Protein disulfide-isomerase A6 (Homo sapiens) (UniProt Q15084) data.
0.292

GET inhibition | system: Protein disulfide-isomerase A6 (Homo sapiens) (UniProt Q15084) | item: C[C@H](CO)N1C[C@H](C)[C@H](CN(C)Cc2ccc(Oc3ccccc3)cc2)Oc2c(NC(=O)CCCCCC(=O)Nc3ccccc3N)cccc2C1=O
1.76

Check Protein disulfide-isomerase A6 (Homo sapiens) (UniProt Q15084) data and give inhibition for O=C(NCC[C@H]1CC[C@@H](NC(=O)C2CCCC2)[C@@H](CO)O1)c1cc(Cl)cc(Cl)c1 .
-0.154

Recall the reported inhibition of CO[C@H]1CN(C)C(=O)c2cc(NC(=O)C3CCC3)ccc2OC[C@H](C)N(CC2CCCCC2)C[C@@H]1C on Protein disulfide-isomerase A6 (Homo sapiens) (UniProt Q15084) and write it down.
-3.58

Look up Protein disulfide-isomerase A6 (Homo sapiens) (UniProt Q15084) data: inhibition of CNC(=O)C[C@@H]1CC[C@@H]2[C@@H](COc3ccc(NC(=O)Nc4ccccc4OC)cc3C(=O)N2C)O1 , then report it.
5.92

# assay system Protein disulfide-isomerase A6 (Homo sapiens) (UniProt Q15084): give inhibition of O=C1CN(Cc2ccc(F)cc2)C[C@H]2[C@@H](c3ccc(Br)cc3)[C@H](CO)N12
4.49

Please report inhibition with Protein disulfide-isomerase A6 (Homo sapiens) (UniProt Q15084) for item C[C@H](CO)N1C[C@H](C)[C@H](CN(C)C)Oc2cc(C#Cc3ccccc3F)ccc2S1(=O)=O .
11.3

Report measured inhibition on Protein disulfide-isomerase A6 (Homo sapiens) (UniProt Q15084); entry: CO[C@@H]1CN(C)C(=O)c2cc(NC(=O)c3ccccc3F)ccc2OC[C@@H](C)N(CC2CC2)C[C@H]1C
-2.62

====

# TEST_TARGET: Protein disulfide-isomerase A6 (Homo sapiens) (UniProt Q15084)
# PROTOCOL_NOTES: inhibitors of ERp5-driven insulin aggregation, primary screen, biochemical, turbidity, absorbance 650 nm, single point (AID 651711)
# EXPERIMENTAL_PARAMETERS: 90 min, at 9.99 µM, stronger effect = higher value
In all, about 350,000 compounds went through this assay and about 180 (0.051%) were called active. Many of the other results were omitted from the sample, so actives are more common in it than they were.
// reported inhibition per item
Use % as the unit, but write only the number.

# annotated cases, reported inhibition shown
C[C@H](CO)N1C[C@H](C)[C@@H](CN(C)Cc2ccc(C(=O)O)cc2)Oc2ccc(NS(=O)(=O)c3cn(C)cn3)cc2CC1=O = -1.33
CCC(=O)Nc1ccc2c(c1)OC[C@@H](C)N(Cc1cncnc1)C[C@H](C)[C@@H](OC)CN(C)C2=O = 1.32
C[C@H](CO)N1C[C@H](C)[C@H](CN(C)C(=O)CCC(F)(F)F)OCCCC[C@H](C)Oc2ccc(NS(=O)(=O)c3ccc(F)cc3)cc2C1=O = 6.41
CC(=O)N1[C@H](CO)[C@H](c2ccccc2)[C@H]1CN(C(=O)c1ccccc1F)C(C)C = -2.13

State its inhibition for this molecule: CO[C@@H]1CC[C@@H]2CCOc3c(C#N)cccc3C(=O)N(C)C[C@@H](OC)[C@@H](C)C(=O)N(C)C[C@H]1O2
0.649

Tell me inhibition reported for CO[C@@H]1CN(C)C(=O)c2cc(NC(=O)c3ccccc3F)ccc2OC[C@H](C)N(C(C)=O)C[C@@H]1C
3.35

Tell me inhibition reported for COCC(=O)N[C@@H]1C=C[C@@H](CC(=O)N2CCCCC2)O[C@@H]1CO
-2.02

Please report inhibition for the following molecule: COc1ccc(NC(=O)Nc2cccc3c2O[C@@H](CN(C)C(=O)NC(C)C)[C@H](C)CN([C@H](C)CO)C3=O)cc1
1.64

Quickly give me recorded inhibition for C[C@@H]1CN([C@H](C)CO)C(=O)Cc2cc(NC(=O)Nc3cccc4ccccc34)ccc2O[C@H]1CN(C)C(=O)Nc1ccc2c(c1)OCO2
-12.4

Tell me its inhibition given C[C@H](CO)N1C[C@H](C)[C@@H](CN(C)CC2CC2)OCCCC[C@H](C)Oc2ccc(NC(=O)Nc3ccccc3)cc2C1=O as the entry.
2.55

// Input: Cc1noc(C)c1S(=O)(=O)N(C)C[C@H]1Oc2ccc(NS(=O)(=O)c3cccs3)cc2C(=O)N([C@H](C)CO)C[C@H]1C . Output its inhibition only.
-0.984

For the molecule COc1ccccc1C#Cc1cnc2c(c1)C(=O)N([C@H](C)CO)C[C@H](C)[C@H](CN(C)S(=O)(=O)c1cn(C)cn1)O2 , give its reported inhibition.
-2.62
